IC50 at 48 h for assorted compounds
- ASSAY NAME: Cytotoxicity against African green monkey Vero cells assessed as cells growth inhibition after 48 hrs by MTT assay
- Type: toxicity, cell-based, Chlorocebus sabaeus
- CONDITION PARAMETERS: African green monkey (Chlorocebus sabaeus), Vero cells
Entry rule: numbers only, all in nM.

Check out these entries, answers already filled in.
>>> value_observed("O=C1/C(=C/c2ccc(Br)cc2)Oc2ccccc21")
2400
>>> value_observed("COc1cc([C@@H]2c3cc4c(cc3[C@@H](O[C@@H]3O[C@@H]5CO[C@@H](C)O[C@H]5[C@H](O)[C@H]3O)[C@H]3COC(=O)[C@H]23)OCO4)cc(OC)c1O [ETOPOSIDE]")
50000
>>> value_observed("O=C1/C(=C/c2ccc(Cl)cc2)N=C2C=CC=CN12")
200
>>> value_observed("COc1ccc(/C=C2\\N=C3C=CC(Cl)=CN3C2=O)cc1")
1500

Lookup: IC50 at 48 h lookup needed for COc1ccc(/C=C2\Oc3ccccc3C2=O)cc1 [4'-METHOXY-AURONE] , thanks.
Found: 2500

Lookup: Data request, read-out IC50 at 48 h, for O=C1/C(=C/c2ccc(O)cc2)N=C2C=CC=CN12
Found: 1500

Lookup: Query: IC50 at 48 h; subject: COc1cc(/C=C2\N=C3C=CC=CN3C2=O)cc(OC)c1OC
Found: 200

Lookup: Field request: IC50 at 48 h | item: O=C1/C(=C/c2ccc(Cl)cc2)N=C2C=CC(Cl)=CN12
Found: 1500

Lookup: For COc1ccc(/C=C2\N=C3C=CC=CN3C2=O)cc1 , what is its reported IC50 at 48 h?
Found: 1500

Lookup: If you can, please state the reported IC50 at 48 h value of COc1ccc(OC)c(/C=C2\N=C3C=CC=CN3C2=O)c1 .
Found: 1500

Lookup: Given the entry O=C1/C(=C/c2ccc(Br)cc2)N=C2C=CC=CN12 , report its measured IC50 at 48 h.
Found: 200

Lookup: I have this compound here, COc1cccc(/C=C2\N=C3C=CC=CN3C2=O)c1 , and I need its recorded IC50 at 48 h.
Found: 1500
